- testedTarget: HEK-Blue-hTLR9 cells (Homo sapiens)
- Sequence (Q9NR96 26-1032): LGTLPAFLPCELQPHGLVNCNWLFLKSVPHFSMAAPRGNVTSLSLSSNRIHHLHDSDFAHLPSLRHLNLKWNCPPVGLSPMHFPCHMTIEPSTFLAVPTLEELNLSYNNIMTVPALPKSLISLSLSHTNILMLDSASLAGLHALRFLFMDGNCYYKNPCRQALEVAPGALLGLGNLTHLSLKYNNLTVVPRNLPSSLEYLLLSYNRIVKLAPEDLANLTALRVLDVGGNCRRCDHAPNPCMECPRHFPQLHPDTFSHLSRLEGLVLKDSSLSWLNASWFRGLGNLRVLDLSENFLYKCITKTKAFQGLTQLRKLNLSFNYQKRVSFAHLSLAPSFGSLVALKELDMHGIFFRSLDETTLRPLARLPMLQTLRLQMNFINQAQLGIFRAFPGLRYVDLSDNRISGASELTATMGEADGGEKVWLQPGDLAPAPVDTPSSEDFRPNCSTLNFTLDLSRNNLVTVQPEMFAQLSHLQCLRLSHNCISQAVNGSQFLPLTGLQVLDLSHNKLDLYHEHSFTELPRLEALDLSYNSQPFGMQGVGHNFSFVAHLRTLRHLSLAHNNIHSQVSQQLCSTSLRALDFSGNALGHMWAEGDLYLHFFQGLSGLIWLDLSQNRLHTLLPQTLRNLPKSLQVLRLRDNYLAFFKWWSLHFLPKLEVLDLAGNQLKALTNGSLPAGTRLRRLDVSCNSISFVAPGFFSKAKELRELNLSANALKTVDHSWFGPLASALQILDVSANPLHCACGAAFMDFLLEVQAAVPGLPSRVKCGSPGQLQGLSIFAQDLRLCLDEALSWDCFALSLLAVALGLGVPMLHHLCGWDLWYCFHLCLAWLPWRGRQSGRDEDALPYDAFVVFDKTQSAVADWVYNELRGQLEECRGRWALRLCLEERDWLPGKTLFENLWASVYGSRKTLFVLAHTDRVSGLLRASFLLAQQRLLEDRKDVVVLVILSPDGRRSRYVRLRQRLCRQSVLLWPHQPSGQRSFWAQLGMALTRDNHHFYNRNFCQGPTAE
- assayOverview: HEK-Blue-hTLR9 cell inhibition assay
- reportedConditions: ODN2006 1 µM, 16 h, OD 620 nm, read-out: TLR9 IC50

compound: CN1CCC(n2cc([C@]34CN(c5ccc(C#N)c6ncccc56)C[C@@]3(C(F)(F)F)C4)nn2)CC1 [Compound 71]
IC50: > 1000 nM
--
compound: CN1CCC(c2nnc([C@]34CN(c5ccc(C#N)c6ncnn56)C[C@@]3(C(F)(F)F)C4)o2)CC1 [Compound 91]
IC50: > 10000 nM
--
compound: Cn1c(CN2CCCC2)nnc1[C@]12CN(c3ccc(C#N)c4ncccc34)C[C@@]1(C(F)(F)F)C2 [Compound 44]
IC50: > 10000 nM
--
compound: N#Cc1ccc(N2C[C@]3(c4nnc(C5CCOCC5)o4)C[C@]3(C(F)(F)F)C2)c2cccnc12 [Compound 12]
IC50: > 10000 nM
--
compound: N#Cc1ccc(N2C[C@]3(c4nnc(C56CCC(N)(CC5)CC6)o4)C[C@]3(C(F)(F)F)C2)c2cccnc12 [Compound 52]
IC50: < 1000 nM
--
compound: CN1CC(c2nnc([C@]34CN(c5ccc(C#N)c6ncccc56)C[C@@]3(C(F)(F)F)C4)o2)C1 [Compound 39]
IC50: > 1000 nM
--
compound: CN(C)[C@H]1CC[C@H](c2nnc([C@]34CN(c5ccc(C#N)c6ncccc56)C[C@@]3(C(F)(F)F)C4)o2)CC1 [Compound 21]
IC50: > 1000 nM

====

Consider the following compounds and their measured IC50 readings.
- testedTarget: HEK-Blue-hTLR9 cells (Homo sapiens, UniProt Q9NR96)
- Sequence (Q9NR96 26-1032): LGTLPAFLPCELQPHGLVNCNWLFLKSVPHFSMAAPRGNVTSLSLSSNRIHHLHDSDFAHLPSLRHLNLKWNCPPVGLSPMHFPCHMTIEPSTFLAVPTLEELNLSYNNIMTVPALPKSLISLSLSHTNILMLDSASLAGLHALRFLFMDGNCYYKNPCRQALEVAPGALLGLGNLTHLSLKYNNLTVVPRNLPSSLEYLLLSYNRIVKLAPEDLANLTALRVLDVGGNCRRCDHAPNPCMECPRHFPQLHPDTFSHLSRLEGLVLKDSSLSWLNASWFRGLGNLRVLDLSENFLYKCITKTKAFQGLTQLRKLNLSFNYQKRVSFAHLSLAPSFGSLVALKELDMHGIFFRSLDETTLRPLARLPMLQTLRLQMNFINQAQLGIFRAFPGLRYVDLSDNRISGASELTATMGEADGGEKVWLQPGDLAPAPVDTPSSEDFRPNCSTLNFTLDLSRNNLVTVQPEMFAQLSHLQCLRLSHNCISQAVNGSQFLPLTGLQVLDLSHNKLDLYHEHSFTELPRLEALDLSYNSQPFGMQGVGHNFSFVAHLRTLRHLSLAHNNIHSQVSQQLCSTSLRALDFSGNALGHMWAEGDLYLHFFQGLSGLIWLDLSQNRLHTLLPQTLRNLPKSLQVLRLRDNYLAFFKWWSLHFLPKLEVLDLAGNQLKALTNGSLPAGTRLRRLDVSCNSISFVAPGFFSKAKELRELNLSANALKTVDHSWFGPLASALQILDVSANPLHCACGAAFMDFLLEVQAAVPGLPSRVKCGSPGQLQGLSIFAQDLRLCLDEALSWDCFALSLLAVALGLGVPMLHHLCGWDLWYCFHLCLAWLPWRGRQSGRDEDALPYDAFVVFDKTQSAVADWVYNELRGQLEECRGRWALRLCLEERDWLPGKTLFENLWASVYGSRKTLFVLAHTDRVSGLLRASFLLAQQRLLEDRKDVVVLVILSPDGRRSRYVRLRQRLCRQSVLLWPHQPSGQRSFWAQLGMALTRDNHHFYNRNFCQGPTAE
- assayOverview: HEK-Blue-hTLR9 cell inhibition assay
- reportedConditions: ODN2006 1 µM, 16 h, OD 620 nm, read-out: TLR9 IC50
quantityMeasured: IC50

smilesCode: FC(F)(F)c1ccc(N2C[C@]3(c4nnc(C5(F)CCNCC5)o4)C[C@]3(C(F)(F)F)C2)c2cccnc12
endpointResult: > 1000 nM

smilesCode: CN1CCC(Cc2nnc([C@]34CN(c5ccc(C#N)c6ncccc56)C[C@@]3(C(F)(F)F)C4)o2)CC1
endpointResult: > 1000 nM

smilesCode: CN1CC2(CCC(c3nnc([C@]45CN(c6ccc(C#N)c7ncccc67)C[C@@]4(C(F)(F)F)C5)o3)CC2)C1
endpointResult: > 1000 nM

smilesCode: NC(=O)CN1CCC(c2nnc([C@]34CN(c5ccc(C(F)(F)F)c6ncccc56)C[C@@]3(C(F)(F)F)C4)o2)CC1
endpointResult: > 10000 nM

====

# IC50 per record follows
- testedTarget: HEK-Blue-hTLR8 cells (Homo sapiens, UniProt Q9NR97)
- Sequence (Q9NR97 27-1041): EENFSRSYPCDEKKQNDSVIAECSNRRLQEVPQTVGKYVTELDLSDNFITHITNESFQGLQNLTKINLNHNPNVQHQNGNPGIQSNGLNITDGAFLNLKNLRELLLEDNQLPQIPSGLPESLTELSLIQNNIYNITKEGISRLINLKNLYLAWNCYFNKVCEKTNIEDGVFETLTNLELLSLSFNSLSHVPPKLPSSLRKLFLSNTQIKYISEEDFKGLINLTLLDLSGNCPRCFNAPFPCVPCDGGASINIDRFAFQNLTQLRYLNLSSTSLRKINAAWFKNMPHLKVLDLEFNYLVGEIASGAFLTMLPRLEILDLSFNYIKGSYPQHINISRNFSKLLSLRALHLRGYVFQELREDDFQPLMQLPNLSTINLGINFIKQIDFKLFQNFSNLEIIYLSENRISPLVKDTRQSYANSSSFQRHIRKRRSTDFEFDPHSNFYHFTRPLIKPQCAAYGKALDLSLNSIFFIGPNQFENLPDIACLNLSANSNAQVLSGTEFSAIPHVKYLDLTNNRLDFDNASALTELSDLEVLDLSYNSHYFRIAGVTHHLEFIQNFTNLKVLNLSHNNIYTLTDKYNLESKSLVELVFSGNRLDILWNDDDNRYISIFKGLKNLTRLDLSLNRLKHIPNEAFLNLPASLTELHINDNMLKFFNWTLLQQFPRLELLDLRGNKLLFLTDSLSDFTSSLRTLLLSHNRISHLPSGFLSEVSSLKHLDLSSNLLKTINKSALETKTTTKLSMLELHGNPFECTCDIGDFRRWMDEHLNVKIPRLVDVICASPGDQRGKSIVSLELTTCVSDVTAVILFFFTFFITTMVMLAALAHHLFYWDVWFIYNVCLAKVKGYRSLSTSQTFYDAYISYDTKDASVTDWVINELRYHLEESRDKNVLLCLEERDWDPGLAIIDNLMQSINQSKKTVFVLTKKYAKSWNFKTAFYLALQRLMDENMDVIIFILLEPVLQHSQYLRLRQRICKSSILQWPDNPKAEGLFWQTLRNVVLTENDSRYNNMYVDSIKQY
- assayOverview: HEK-Blue-hTLR8 cell inhibition assay
- reportedConditions: R848 3 µM, 16 h, OD 620 nm, read-out: TLR8 IC50
quantityMeasured: IC50

compound: N#Cc1ccc(N2C[C@]3(c4nnc(N5CCOCC5)o4)C[C@]3(C(F)(F)F)C2)c2cccnc12
testedTarget: HEK-Blue-hTLR8 cells (Homo sapiens, UniProt Q9NR97)
endpointResult: < 1000 nM

compound: CN1CCC(c2nnc([C@]34CN(c5ccc(C(F)(F)F)n6nccc56)C[C@@]3(C(F)(F)F)C4)o2)CC1
testedTarget: HEK-Blue-hTLR8 cells (Homo sapiens, UniProt Q9NR97)
endpointResult: < 1000 nM

compound: N#Cc1ccc(N2C[C@]3(c4nnc(C5(F)CNC5)o4)C[C@]3(C(F)(F)F)C2)c2cccnc12
testedTarget: HEK-Blue-hTLR8 cells (Homo sapiens, UniProt Q9NR97)
endpointResult: < 100 nM

compound: CN1CCC(c2nnc([C@]34CN(c5cnc(C#N)c6ncccc56)C[C@@]3(C(F)(F)F)C4)o2)CC1
testedTarget: HEK-Blue-hTLR8 cells (Homo sapiens, UniProt Q9NR97)
endpointResult: < 100 nM

compound: CN1CCC(c2nnc([C@]34CN(c5ccc(C#N)n6ncc(F)c56)C[C@@]3(C(F)(F)F)C4)o2)CC1
testedTarget: HEK-Blue-hTLR8 cells (Homo sapiens, UniProt Q9NR97)
endpointResult: < 100 nM

compound: CN1CCC(Oc2nnc([C@]34CN(c5ccc(C#N)n6ncc(F)c56)C[C@@]3(C(F)(F)F)C4)o2)CC1
testedTarget: HEK-Blue-hTLR8 cells (Homo sapiens, UniProt Q9NR97)
endpointResult: < 100 nM

compound: CCc1nc2c(C#N)ccc(N3C[C@]4(c5nnc(C6CCN(C)CC6)o5)C[C@]4(C(F)(F)F)C3)c2nc1CC
testedTarget: HEK-Blue-hTLR8 cells (Homo sapiens, UniProt Q9NR97)
endpointResult: > 10000 nM

compound: N#Cc1ccc(N2C[C@]3(c4nnc([C@H]5CN(CC(N)=O)CCO5)o4)C[C@]3(C(F)(F)F)C2)c2cccnc12
testedTarget: HEK-Blue-hTLR8 cells (Homo sapiens, UniProt Q9NR97)
endpointResult: < 100 nM

compound: Cc1ccc(N2C[C@]3(c4nnc(C5CCN(C)CC5)o4)C[C@]3(C(F)(F)F)C2)c2cccnc12
testedTarget: HEK-Blue-hTLR8 cells (Homo sapiens, UniProt Q9NR97)
endpointResult: < 100 nM

compound: Cc1cc(N2CC3(c4nnc(C5CCN(C)CC5)o4)C[C@]3(C(F)(F)F)C2)c2cnn(C)c2n1 (some centres unmarked)
testedTarget: HEK-Blue-hTLR8 cells (Homo sapiens, UniProt Q9NR97)
endpointResult: > 1000 nM

compound: CN1CCC(Oc2nnc([C@]34CN(c5ccc(C(F)(F)F)c6ncccc56)C[C@@]3(C(F)(F)F)C4)o2)CC1
testedTarget: HEK-Blue-hTLR8 cells (Homo sapiens, UniProt Q9NR97)
endpointResult: < 100 nM

compound: CN1CC(c2nnc([C@]34CN(c5ccc(C(F)(F)F)c6ncccc56)C[C@@]3(C(F)(F)F)C4)o2)C1
testedTarget: HEK-Blue-hTLR8 cells (Homo sapiens, UniProt Q9NR97)
endpointResult: < 100 nM

compound: N#Cc1ccc(N2C[C@]3(c4nnc(C5CCNCC5F)o4)C[C@]3(C(F)(F)F)C2)c2cccnc12 (some centres unmarked)
testedTarget: HEK-Blue-hTLR8 cells (Homo sapiens, UniProt Q9NR97)
endpointResult: < 100 nM

compound: N#Cc1ccc(N2C[C@]3(c4nnc(CN5CCCC5)o4)C[C@]3(C(F)(F)F)C2)c2cccnc12
testedTarget: HEK-Blue-hTLR8 cells (Homo sapiens, UniProt Q9NR97)
endpointResult: < 1000 nM

compound: N#Cc1ccc(N2C[C@]3(c4nnc(C5CCOCC5)o4)C[C@]3(C(F)(F)F)C2)c2cccnc12
testedTarget: HEK-Blue-hTLR8 cells (Homo sapiens, UniProt Q9NR97)
endpointResult: < 100 nM

compound: CN(C)C12CCC(c3nnc([C@]45CN(c6ccc(C(F)(F)F)c7ncccc67)C[C@@]4(C(F)(F)F)C5)o3)(CC1)CC2
testedTarget: HEK-Blue-hTLR8 cells (Homo sapiens, UniProt Q9NR97)
endpointResult: < 100 nM

compound: CN1CCC(c2nnc([C@]34CN(c5ccc(C#N)c6nc(Cl)ccc56)C[C@@]3(C(F)(F)F)C4)o2)CC1
testedTarget: HEK-Blue-hTLR8 cells (Homo sapiens, UniProt Q9NR97)
endpointResult: > 1000 nM

compound: CN1CCC(c2nnc([C@]34CN(c5ccc(OC(F)(F)F)c6ncccc56)C[C@@]3(C(F)(F)F)C4)o2)CC1
testedTarget: HEK-Blue-hTLR8 cells (Homo sapiens, UniProt Q9NR97)
endpointResult: < 100 nM

compound: N#Cc1ccc(N2C[C@]3(c4nnc(CCN5CCOCC5)o4)C[C@]3(C(F)(F)F)C2)c2cccnc12
testedTarget: HEK-Blue-hTLR8 cells (Homo sapiens, UniProt Q9NR97)
endpointResult: < 100 nM

compound: N#Cc1ccc(N2C[C@]3(c4nnc(OCCN5CCCC5)o4)C[C@]3(C(F)(F)F)C2)c2cccnc12
testedTarget: HEK-Blue-hTLR8 cells (Homo sapiens, UniProt Q9NR97)
endpointResult: < 100 nM
